Values compiled from FireProtDB (doi:10.1021/bi00025a018).

Readings of ddG of mutation (higher = less stable) for the listed variants
B1: Ribonuclease HI, P0A7Y4 (parent)
chain: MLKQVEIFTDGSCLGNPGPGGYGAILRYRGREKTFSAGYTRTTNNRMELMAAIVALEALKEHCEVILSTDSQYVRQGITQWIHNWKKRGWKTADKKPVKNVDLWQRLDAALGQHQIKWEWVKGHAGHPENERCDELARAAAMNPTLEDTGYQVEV

Variants of: B1
cond: Escherichia coli (strain K12); pH 5.5; 52.5 °C; Thermal; CD; Sodium acetate 10 mM; NaCl 0.1 M; reversible: yes; structure 2RN2; whole UniProt chain shown
// note: answer is a bare numeric in kcal/mol

G23A : -0.5
V74L : -0.9
H62P : -1.1

Here's the next entry for you.
Determine its reported ddG of mutation (higher = less stable): D134H -1.9
